Listed here are molecules together with their documented Kill in % after 1 d.
- Test system: Aphis gossypii
- protocol_notes: Aphis gossypii test (cotton leaves dipped into the preparation of active compound)
- Type: in vivo
- measurement_parameters: 100 ppm, after 1 d, leaf dip
- Text: The expected activity for a given combination of two active compounds can be calculated according to S. R. Colby, Weeds 15 (1967), 20-22 as follows: […] If the actual kill rate is greater than calculated, the kill of the combination is superadditive, i.e. there is a synergistic effect. In this case, the actual observed kill rate has to be greater than the value for the expected kill rate (E) calculated from the formula given above. […] After the desired period of time, the kill in % is determined. […]
property: Kill in % after 1 d (%)

>>> print(df.to_string())
                                   molecule  experimental_value
0   CC(C)N1C(=O)N(c2ccccc2)CS/C1=N\C(C)(C)C                   5
1  COC(=O)N(C(=O)N1COC2(C(=O)OC)Cc3cc(Cl)ccc3C2=N1)c1ccc(OC(F)(F)F)cc1 (stereo not shown)                   0
2  FC(F)(F)c1ccc(OCCCOc2c(Cl)cc(OCC=C(Cl)Cl)cc2Cl)nc1                   5
3  COc1cccc(C(=O)NN(C(=O)c2cc(C)cc(C)c2)C(C)(C)C)c1C [methoxyfenozide]                   0
